All figures here come from PubChem BioAssay.

# Assay: doxorubicin toxicity protection in MRP-1 cells – H69AR cells, CellTiter-Glo, duplicate, MRP-1 activator project, pilot screen (AID 807);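 also: compound pretreatment 18-22 h then 72 h combined with doxorubicin; 0% = doxorubicin alone and 100% = vehicle without doxorubicin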
# Measurement Setup: H69AR viability with doxorubicin, CellTiter-Glo luminescence; at 10 µM; stronger effect = higher value
Experimental Endpoint: viability increase (%)
Numeric only. Scale: %

Solved entries (count: 2):
*Q* For CCC(C)(NC(=O)c1ccc(=O)[nH]c1)C(=O)NC1CCCC1 (stereo not drawn) , write its viability increase.
*A* 0.76

*Q* Please give the documented viability increase of `CCCN1CCC(N(C)CCc2ccc(OC)c(OC)c2)CC1`
*A* -0.93

Here's the next entry for you.
*Q* Answer with reported viability increase of `COc1cc(C(=O)NCCc2ccc3c(c2)OCCO3)ccc1OCC(=O)N1CCOCC1`
*A* -2.17
